Field: RAMPO Score. Provide a value for each of the binders that follow.
assay-target: T1, P3028 (VFDEFKPLVEEPQNLIK, SEQ ID NO: 185), His-tagged (human)
T1 construct: Synthetic fragment of human serum albumin (positions 397-413); used in solution as His-tagged peptide PGE73; also called PGE73; not shown: His-tag
T1 peptide: VFDEFKPLVEEPQNLIK
assay-details: PEPSCAN ELISA; peptide on chip, His-P3028 added;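 note: peroxidase color development with ABTS and H2O2 substrate, OD405 imaged by CCD camera with image processing and taken as raw values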
Give bare numbers, in rampo units.

>>> df
                                     binder   scale_unit  result_number
0  KKLQTFFVKLSLFTER [KKLQTFFVKLSLFTER (SEQ ID NO: 448)]  rampo units            345

State the recorded RAMPO Score for every item in the following list.
1. KKLDTFFVKTSLFTER [KKLDTFFVKTSLFTER (SEQ ID NO: 342)]
2. KKLDTFFVKLFLFTER [KKLDTFFVKLFLFTER (SEQ ID NO: 522)]

[399, 250]
